biological target: serum albumin (Rattus norvegicus, UniProt P02770); assay: Binding affinity to rat serum albumin; format: ADME; details: read-out: PB (converted)
Sequence (P02770 whole entry): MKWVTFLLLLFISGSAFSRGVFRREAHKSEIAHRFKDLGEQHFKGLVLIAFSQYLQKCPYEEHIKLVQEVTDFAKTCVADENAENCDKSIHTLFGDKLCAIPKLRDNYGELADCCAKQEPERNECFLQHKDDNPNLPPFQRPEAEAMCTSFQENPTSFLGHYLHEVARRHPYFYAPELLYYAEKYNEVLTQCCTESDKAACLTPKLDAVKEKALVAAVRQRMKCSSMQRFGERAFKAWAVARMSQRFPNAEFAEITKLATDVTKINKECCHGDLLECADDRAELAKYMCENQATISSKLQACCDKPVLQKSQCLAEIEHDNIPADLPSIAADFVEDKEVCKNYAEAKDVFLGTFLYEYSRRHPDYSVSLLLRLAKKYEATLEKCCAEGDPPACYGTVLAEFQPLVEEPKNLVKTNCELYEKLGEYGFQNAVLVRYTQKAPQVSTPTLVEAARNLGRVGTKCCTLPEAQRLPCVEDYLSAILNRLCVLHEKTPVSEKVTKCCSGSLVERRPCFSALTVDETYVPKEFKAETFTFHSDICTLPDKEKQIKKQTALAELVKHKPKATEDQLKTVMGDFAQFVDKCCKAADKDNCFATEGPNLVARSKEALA

{"columns": ["line_notation", "target_or_system", "fraction unbound"],
 "data": [
  ["CC(C)C[C@@H]1C(=O)N[C@H](C2Cc3ccccc3C2)C(=O)N1[C@@H](C(=O)N1CCOCC1)c1ccc(N(C)C)nc1", "serum albumin (Rattus norvegicus, UniProt P02770)", 0.29],
  ["CC(C)C[C@@H]1C(=O)N[C@H](C2Cc3ccccc3C2)C(=O)N1[C@@H](C(=O)N(C)C)c1ccc(F)cc1F", "serum albumin (Rattus norvegicus, UniProt P02770)", 0.01],
  ["CC(C)C[C@@H]1C(=O)N[C@H](C2Cc3ccccc3C2)C(=O)N1[C@@H](C(=O)N(C)C)c1ccc(N(C)C)nc1", "serum albumin (Rattus norvegicus, UniProt P02770)", 0.18],
  ["COc1ccc([C@H](C(=O)N(C)C)N2C(=O)[C@@H](C3Cc4ccccc4C3)NC(=O)[C@H]2CC(C)C)cn1", "serum albumin (Rattus norvegicus, UniProt P02770)", 0.14],
  ["CC(C)C[C@@H]1C(=O)N[C@H](C2Cc3ccccc3C2)C(=O)N1[C@@H](C(=O)N(C)C)c1ccc(=O)[nH]c1", "serum albumin (Rattus norvegicus, UniProt P02770)", 0.63],
  ["Cc1ccc([C@H](C(=O)N2CCOCC2)N2C(=O)[C@@H](C3Cc4ccccc4C3)NC(=O)[C@H]2CC(C)C)cn1", "serum albumin (Rattus norvegicus, UniProt P02770)", 0.38],
  ["Cc1ccc([C@H](C(=O)N(C)C)N2C(=O)[C@@H](C3Cc4ccccc4C3)NC(=O)[C@H]2CC(C)C)cn1", "serum albumin (Rattus norvegicus, UniProt P02770)", 0.14],
  ["Cc1ccc([C@H](C(=O)N2CCCC2)N2C(=O)[C@@H](C3Cc4ccccc4C3)NC(=O)[C@H]2CC(C)C)cn1", "serum albumin (Rattus norvegicus, UniProt P02770)", 0.3],
  ["COc1ccc([C@H](C(=O)N2CCOCC2)N2C(=O)[C@@H](C3Cc4ccccc4C3)NC(=O)[C@H]2CC(C)C)cn1", "serum albumin (Rattus norvegicus, UniProt P02770)", 0.22]
]}

====

experiment: Dissociation constant, pKa of the compound in aqueous solution; type: physicochemical

{"columns": ["line_notation", "pKa"],
 "data": [
  ["CC[C@H](C)[C@@H]1C(=O)N[C@H](C2Cc3ccccc3C2)C(=O)N1[C@@H](C(=O)N1CCOCC1)c1ccc(C)nc1C", 5.78]
]}

====

experiment: Half life in rat; assay type: ADME, organism-based; settings: in vivo

{"columns": ["line_notation", "unit_of_measure", "half-life"],
 "data": [
  ["CC[C@H](C)[C@@H]1C(=O)N[C@H](C2Cc3ccccc3C2)C(=O)N1[C@@H](C(=O)N1CCOCC1)c1ccc(C)nc1C", "min", 72]
]}

====

Catalogue of Ki values
biological target: Oxytocin receptor (Homo sapiens, UniProt P30559); assay: Displacement of [3H]oxytocin from human oxytocin receptor
Sequence (P30559 whole entry): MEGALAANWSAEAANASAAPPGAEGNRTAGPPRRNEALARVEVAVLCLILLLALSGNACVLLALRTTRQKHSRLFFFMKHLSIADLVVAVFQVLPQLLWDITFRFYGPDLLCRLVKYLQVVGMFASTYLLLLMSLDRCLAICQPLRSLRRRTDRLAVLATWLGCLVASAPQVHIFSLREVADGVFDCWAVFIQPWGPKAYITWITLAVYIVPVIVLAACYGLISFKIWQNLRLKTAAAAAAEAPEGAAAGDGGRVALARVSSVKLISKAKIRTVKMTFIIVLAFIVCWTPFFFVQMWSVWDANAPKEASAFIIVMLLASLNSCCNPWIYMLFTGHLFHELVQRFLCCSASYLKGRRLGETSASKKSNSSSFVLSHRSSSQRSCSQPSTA

{"columns": ["line_notation", "target_or_system", "Ki, nM"],
 "data": [
  ["CC(C)C[C@@H]1C(=O)N[C@H](C2Cc3ccccc3C2)C(=O)N1[C@@H](C(=O)N(C)C)c1ccc(=O)[nH]c1", "Oxytocin receptor (Homo sapiens, UniProt P30559)", 3.16],
  ["CC[C@H](C)[C@@H]1C(=O)N[C@H](C2Cc3ccccc3C2)C(=O)N1[C@@H](C(=O)N(C)C)c1ccc(C)nc1", "Oxytocin receptor (Homo sapiens, UniProt P30559)", 0.2],
  ["CC[C@H](C)[C@@H]1C(=O)N[C@H](C2Cc3ccccc3C2)C(=O)N1[C@@H](C(=O)NC)c1ccc(C)nc1C", "Oxytocin receptor (Homo sapiens, UniProt P30559)", 0.398],
  ["CCC(CC)[C@@H]1C(=O)N[C@H](C2Cc3ccccc3C2)C(=O)N1[C@@H](C(=O)N(C)C)c1ccc(C)nc1C", "Oxytocin receptor (Homo sapiens, UniProt P30559)", 0.0316]
]}
